Where these numbers come from: BindingDB's records for doi:10.1021/jm050267e

SYSTEM NAME: Cyclin-dependent kinase 4/G1/S-specific cyclin-D1 (Mus musculus, UniProt P30285)
Sequence (P25322 whole entry): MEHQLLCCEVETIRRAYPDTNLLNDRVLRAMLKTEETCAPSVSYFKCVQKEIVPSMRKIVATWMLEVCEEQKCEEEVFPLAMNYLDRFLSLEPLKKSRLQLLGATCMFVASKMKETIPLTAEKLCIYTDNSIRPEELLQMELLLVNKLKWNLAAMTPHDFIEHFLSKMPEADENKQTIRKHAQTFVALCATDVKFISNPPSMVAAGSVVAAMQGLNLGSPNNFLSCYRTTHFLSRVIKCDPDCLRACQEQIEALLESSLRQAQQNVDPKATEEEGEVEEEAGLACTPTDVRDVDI
Sequence (P30285 whole entry): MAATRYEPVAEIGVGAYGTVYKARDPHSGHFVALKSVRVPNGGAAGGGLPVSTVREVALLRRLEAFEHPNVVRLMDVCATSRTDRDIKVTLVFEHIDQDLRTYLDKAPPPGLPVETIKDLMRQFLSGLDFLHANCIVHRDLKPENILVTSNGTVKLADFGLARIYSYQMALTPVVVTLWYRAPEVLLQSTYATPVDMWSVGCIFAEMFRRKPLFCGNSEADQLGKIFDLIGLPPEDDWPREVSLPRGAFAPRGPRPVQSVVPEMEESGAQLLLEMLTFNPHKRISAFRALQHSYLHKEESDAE
ASSAY COMMENT: Kinase Inhibition Assay
VALUE TYPE: pIC50
The value called pIC50 is obtained by taking minus log10 of the concentration in mol/L.

Q) For Cc1ccc(F)c(C(=O)n2nc(Nc3ccc(S(N)(=O)=O)cc3)nc2N)c1F , write its pIC50.
A) 6.72

###

SYSTEM NAME: Cyclin-A2/Cyclin-dependent kinase 2 (Homo sapiens, UniProt P24941)
ASSAY COMMENT: Kinase Inhibition Assay
VALUE TYPE: IC50 (nM)
Could you give me the number in nM? Just the number is fine.

Q) For Cc1ccc(F)c(C(=O)n2nc(Nc3ccc(S(N)(=O)=O)cc3)nc2N)c1F , write its IC50.
A) 0.3
